Measured values drawn from ChEMBL document CHEMBL4346735 for this set.

assay: Metabolic stability in simulated intestinal fluid assessed as compound remaining after 30 mins
Type: ADME
test parameters: read-out: Stability
measured endpoint: remaining at 0.5 h
Write the numeric value and append its unit.

Return the recorded remaining at 0.5 h value; entry: `O=C(O)c1ccc(-n2cc(C(=O)c3c(Cl)cccc3Cl)c3cccc(F)c32)cc1`
100%

###

measurement target: UniProt:P51450
Sequence (P51450 whole entry): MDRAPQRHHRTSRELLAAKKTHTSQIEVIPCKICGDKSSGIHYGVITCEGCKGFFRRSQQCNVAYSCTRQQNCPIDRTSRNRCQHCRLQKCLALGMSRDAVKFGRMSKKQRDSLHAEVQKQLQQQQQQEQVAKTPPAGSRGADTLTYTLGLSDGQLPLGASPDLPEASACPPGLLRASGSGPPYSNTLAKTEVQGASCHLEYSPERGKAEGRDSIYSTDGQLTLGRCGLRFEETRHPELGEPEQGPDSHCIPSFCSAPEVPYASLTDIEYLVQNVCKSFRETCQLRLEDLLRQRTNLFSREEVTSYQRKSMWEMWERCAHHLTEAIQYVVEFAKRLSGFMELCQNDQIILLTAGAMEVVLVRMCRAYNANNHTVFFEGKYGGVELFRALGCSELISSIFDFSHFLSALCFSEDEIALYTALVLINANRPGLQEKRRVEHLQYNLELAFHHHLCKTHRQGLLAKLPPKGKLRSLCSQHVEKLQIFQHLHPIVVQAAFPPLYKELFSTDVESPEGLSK
assay: Transrepression of RORgammat in Balb/c mouse splenocytes assessed as inhibition of anti-CD3/anti-CD28 stimulated IL-17 gene expression at 30 uM measured after 24 hrs in presence of anti-CD3/anti-CD28
Assay type: cell-based
Item-by-item account of inhibition
Give the value, in units of %, as a plain number.

Record excerpt, results attached:
Cc1cccc(Cl)c1C(=O)c1cn(-c2ccc(C(=O)O)cc2)c2ccccc12: 56
O=C(O)c1ccc(-c2nn(C(=O)c3c(Cl)cccc3Cl)c3ccccc23)cc1: 52
O=C(O)c1ccc(-n2cc(C(=O)c3c(Cl)cccc3Cl)c3cccc(F)c32)cc1: 76

Next:
# return recorded inhibition for entry `O=C(O)c1ccc(-n2cc(C(=O)c3c(Cl)cccc3C(F)(F)F)c3cccc(F)c32)cc1`
55
